- Test system: Human RSV-A (“Long” strain)
- experiment: RSV in vitro cytoprotection assay (CPE, ATPlite) in HEp-2 cells
- Format: cell-based
- measurementParameters: human respiratory syncytial virus, 96 h; HEp-2 cells, 4-day incubation, ATPlite readout; read-out: Human RSV-A (“Long” strain) EC50
pEC50: −log10 of the molar value.
quantityMeasured: pEC50

Look over these answered cases.
{"structure": "Cc1cc(C(=O)Nc2ccc(C(=O)N3CCc4cc(C(=O)Nc5c(F)cc(F)cc5Cl)sc4-c4ccc(F)cc43)cc2)c(N2CC3(CCOCC3)C2)nn1", "quantityMeasured": "pEC50", "recordedValue": "7.30 to 8.00"}
{"structure": "Cc1cnc(N2CC3(CCOCC3)C2)c(C(=O)Nc2ccc(C(=O)N3CCc4cc(-c5ccn[nH]5)sc4-c4ccc(F)cc43)cc2)c1", "quantityMeasured": "pEC50", "recordedValue": "7.30 to 8.00"}
{"structure": "O=C(Nc1ccccc1)c1cc2c(o1)-c1ccccc1N(C(=O)c1ccc(NC(=O)c3cc4c(nc3N3CC5(CCOCC5)C3)CCC4)cc1)CC2", "quantityMeasured": "pEC50", "recordedValue": "> 8.00"}
{"structure": "Cc1cnc(N2CC3(CCOCC3)C2)c(C(=O)Nc2ccc(C(=O)N3CCc4c(sc(C(=O)Nc5ncc(C(F)(F)F)s5)c4F)-c4ccccc43)cc2)c1", "quantityMeasured": "pEC50", "recordedValue": "< 7.30"}
{"structure": "Cc1cccc(F)c1NC(=O)c1cc2c(s1)-c1ccc(C(F)(F)F)cc1N(C(=O)c1ccc(NC(=O)c3cccnc3N3CC4(CCOCC4)C3)cc1)CC2", "quantityMeasured": "pEC50", "recordedValue": "< 7.30"}

// moving on: another record for pEC50
Entry under review: "Cc1cnc(N2CC3(CCOCC3)C2)c(C(=O)Nc2ccc(C(=O)N3CCc4sc(C(=O)Nc5c(F)cccc5F)cc4-c4ccccc43)cc2)c1" . Reported pEC50? > 8.00

Provenance of the data: patent US11091501B2
